Numbers sourced from the supplement of paper PMC12042874.

Reported amyloid nucleation score values follow for various substances
Test: amyloid nucleation score (Sup35N fusion, yeast selection) (log enrichment); library NNK1; higher = more nucleation; inactive = no reads after selection;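 note: zero at mode of non-aggregating sequences after 7 days selection at 30°C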

- Substance: "LYLNADLYYE"
  amyloid nucleation score: 0.005
- Substance: "LMGGNDNWGTTNPEDGILIW"
  amyloid nucleation score: -0.347
- Substance: "ANMHRVKAYCHIFGLSHETE"
  amyloid nucleation score: -0.775
- Substance: "RCYCDNFVLGLVEL"
  amyloid nucleation score: 0.267
- Substance: "CNMVLFRVKYY"
  amyloid nucleation score: 2.67
- Substance: "GKNFYREDAVSVCRWL"
  amyloid nucleation score: 0.342
- Substance: "LASHHLACCYPNLSTSYLNP"
  amyloid nucleation score: -0.118
- Substance: "CIFTRKGIEVVCWLEGRMVP"
  amyloid nucleation score: 0.411
- Substance: "QRNVPIGLVRYDAV"
  amyloid nucleation score: 0.45
- Substance: "VITFITSL"
  amyloid nucleation score: 3.85
- Substance: "ELKQIKVGRSLWRMVRRMGD"
  amyloid nucleation score: 1.37
- Substance: "TNRPAPLPSYRTILCK"
  amyloid nucleation score: 0.7
- Substance: "MPNSPQS"
  amyloid nucleation score: -0.404
- Substance: "NWILSLAGFYRSSKVSSCTT"
  amyloid nucleation score: 0.41
- Substance: "GPFIVIPK"
  amyloid nucleation score: -0.149
- Substance: "FISVMTLRLEKFEVVGDMKL"
  amyloid nucleation score: -0.43
- Substance: "ILCCLMSFWDVRKFFFNQKA"
  amyloid nucleation score: -0.722
- Substance: "EDCIMGNWNLCSKGSSGF"
  amyloid nucleation score: 0.374
- Substance: "IVLKVIINVCHYLTGGSTFA"
  amyloid nucleation score: 6.47
- Substance: "TMTVSFPRLEKCTSK"
  amyloid nucleation score: 0.169
- Substance: "AILFLFFN"
  amyloid nucleation score: 2.66
- Substance: "CVALGLLGRCVLLVAGGGWA"
  amyloid nucleation score: 0.503
- Substance: "FVGQRKLLLKEEAQGFLQCK"
  amyloid nucleation score: -0.707
- Substance: "FVRSFYSDKLWQIFGWVVGS"
  amyloid nucleation score: -0.753
- Substance: "KDSFLMGGLFFMTAAWVSPR"
  amyloid nucleation score: 1.54
- Substance: "HFAGCNSIDLQCNIRCKNIR"
  amyloid nucleation score: 5.47
- Substance: "IWCSVNEWQYRVKVV"
  amyloid nucleation score: 0.03
- Substance: "FATIVFVVKNENFMNADTLR"
  amyloid nucleation score: 5.68
- Substance: "HYTLCCKFFNQHVGHAMQNE"
  amyloid nucleation score: 1.87
- Substance: "RWNFFTFWFLW"
  amyloid nucleation score: 0.048

====

Assay: amyloid nucleation score (Sup35N fusion, yeast selection) (log enrichment); library NNK3; higher = more nucleation; inactive = no reads after selection

- Substance: "EKCWFQVCCTRSLGKSGIIC"
  amyloid nucleation score: "inactive"
- Substance: "RKWSNR"
  amyloid nucleation score: "inactive"
- Substance: "RGYSANWNLMVAVTCGTIH"
  amyloid nucleation score: -0.422
- Substance: "SVFPSLFNACSDLNSVHKVV"
  amyloid nucleation score: "inactive"
- Substance: "FIYDEQSSDSVV"
  amyloid nucleation score: "inactive"
- Substance: "IFGSAFFRYYLCITQFCEYS"
  amyloid nucleation score: "inactive"
- Substance: "HYNVFGGRLSSSRNMYKGVY"
  amyloid nucleation score: "inactive"
- Substance: "RRFKQCNHILACR"
  amyloid nucleation score: "inactive"
- Substance: "DLSKTGTSNNLLFTERISDI"
  amyloid nucleation score: "inactive"
- Substance: "KCNPVINFLWEMVLSDVFPL"
  amyloid nucleation score: "inactive"
- Substance: "GRPIKWKKRSAVK"
  amyloid nucleation score: "inactive"
- Substance: "NMYSCNSGGHKQLCLKVGDL"
  amyloid nucleation score: "inactive"
- Substance: "LLRSYFVVAC"
  amyloid nucleation score: "inactive"
- Substance: "SIRLGNNSWPVATSVKWHSV"
  amyloid nucleation score: "inactive"
- Substance: "FRLYFYYYSNLFRHFCYNKS"
  amyloid nucleation score: "inactive"
- Substance: "NMQGLRFSRKCCEHRGFYIC"
  amyloid nucleation score: "inactive"
- Substance: "NSYGPRKSSGRVAPF"
  amyloid nucleation score: "inactive"
- Substance: "TDHAWFWEQS"
  amyloid nucleation score: "inactive"
- Substance: "ITNCFWHWIRAISYANAANS"
  amyloid nucleation score: "inactive"
- Substance: "SCIRNSLRLNSFSVFFLAFH"
  amyloid nucleation score: "inactive"
- Substance: "FIILKYGLYM"
  amyloid nucleation score: 0.507
- Substance: "VLIMRCLKWFASMLCFSIPK"
  amyloid nucleation score: "inactive"
- Substance: "IMKRFVMFLCFSISIWMFVV"
  amyloid nucleation score: "inactive"
- Substance: "LLMDYYFVGLKLVPFAVPKV"
  amyloid nucleation score: 1.22
- Substance: "ILRFFVCLSHKNVDFICSAR"
  amyloid nucleation score: "inactive"
- Substance: "CSGFRVNSSTVIGYLSILLK"
  amyloid nucleation score: "inactive"
- Substance: "VRRLFVARCRYCQLMYFRGE"
  amyloid nucleation score: "inactive"
- Substance: "YRANINRVLVFQLN"
  amyloid nucleation score: 1.44
- Substance: "SKIVNHFNDHYHFEITCQYQ"
  amyloid nucleation score: 2.88
- Substance: "ARMLSVYSSESQCVTPGWCC"
  amyloid nucleation score: "inactive"

====

Experiment: amyloid nucleation score (Sup35N fusion, yeast selection) (log enrichment); library NNK3; higher = more nucleation; inactive = no reads after selection

- Input sequence: "FTRWIWFIVITSASCFKSFH"
  amyloid nucleation score: "inactive"
- Input sequence: "IANTHFIIM"
  amyloid nucleation score: 1.14
- Input sequence: "NKRGNVASLLSLACKYGAEQ"
  amyloid nucleation score: "inactive"
- Input sequence: "ITNFIRWNTNV"
  amyloid nucleation score: "inactive"
- Input sequence: "PRRTNRVNKSISSVLSLRIG"
  amyloid nucleation score: 0.517
- Input sequence: "DVQCGVIMRGLDKYFDLNSA"
  amyloid nucleation score: "inactive"
- Input sequence: "FGVVWGSKLFCRFGSVTIYP"
  amyloid nucleation score: "inactive"
- Input sequence: "CCLTIGSKPIYHCWQLGIMA"
  amyloid nucleation score: "inactive"
- Input sequence: "FTSQYIYDAIRRLRKMSIMS"
  amyloid nucleation score: "inactive"
- Input sequence: "QLVFYHVDLHILPFWSAI"
  amyloid nucleation score: 2.15
- Input sequence: "DVALCKYFGLNTIVNSFLAM"
  amyloid nucleation score: 1.42
- Input sequence: "AVRSFLTWISMN"
  amyloid nucleation score: "inactive"
- Input sequence: "AWPIIRFYIQRYLWIVRGRG"
  amyloid nucleation score: "inactive"
- Input sequence: "YVGPKMFLVWVCDATDVGKW"
  amyloid nucleation score: "inactive"
- Input sequence: "FLLGPSLTPNSMG"
  amyloid nucleation score: "inactive"
- Input sequence: "VVDLIFLSLF"
  amyloid nucleation score: "inactive"
- Input sequence: "CLFRYSEYSVGKLMGYCDCG"
  amyloid nucleation score: "inactive"
- Input sequence: "MCYALMRTTWCGKLKIVLSG"
  amyloid nucleation score: "inactive"
- Input sequence: "LLIVNWVFRILVYRTTRGLR"
  amyloid nucleation score: "inactive"

====

Test: amyloid nucleation score (Sup35N fusion, yeast selection) (log enrichment); library NNK3; higher = more nucleation; inactive = no reads after selection

- Substance: "TAFYSRYFWVNLICRRPSFK"
  amyloid nucleation score: "inactive"
- Substance: "CPESLWNKSYVYAGALTFLR"
  amyloid nucleation score: "inactive"
- Substance: "FLIWGKQPWTRKLLGTIVPV"
  amyloid nucleation score: "inactive"
- Substance: "KNLGLA"
  amyloid nucleation score: "inactive"
- Substance: "REASCGIDRMIRRCTERLSC"
  amyloid nucleation score: "inactive"

====

Test: amyloid nucleation score (Sup35N fusion, yeast selection) (log enrichment); library NNK1; higher = more nucleation; inactive = no reads after selection
Cut-off 0.4 on amyloid nucleation score, inclusive. At or above means 1.0; below means 0.0.

- Substance: "IASLRIIDSIQFISVNSCYG"
  Cat: 0.0
- Substance: "TLSTVTG"
  Cat: 0.0
- Substance: "GPVRQHCYCDMTTVFRILGA"
  Cat: 0.0
- Substance: "VLSCLPHAINFFYPSRSK"
  Cat: 1.0
- Substance: "EMSIILGIERRNHCVPAMVS"
  Cat: 0.0
- Substance: "QLNLNLFACQCSTV"
  Cat: 1.0
- Substance: "WYSTFGAMKKLGTYPCSGVN"
  Cat: 0.0
- Substance: "FQVLYNGVMCHYSCWCVWKV"
  Cat: 1.0
- Substance: "NDVFEHIITFCILRVYHMFC"
  Cat: 0.0
- Substance: "WFWELGN"
  Cat: 0.0
- Substance: "TKDRFYEC"
  Cat: 1.0
- Substance: "QGINLVY"
  Cat: 0.0
- Substance: "QVFVIIIFPCMQWYDMYCSD"
  Cat: 0.0
- Substance: "NYTVRENGSK"
  Cat: 0.0
- Substance: "GLWFVC"
  Cat: 0.0
- Substance: "KVRMLNMVYKNLSDRD"
  Cat: 1.0
- Substance: "LNSRHVNSYF"
  Cat: 1.0
- Substance: "LTFLRIYAIDSEPHLSGTML"
  Cat: 0.0
- Substance: "NGLFIRYSVVMAYSELEVVG"
  Cat: 0.0
- Substance: "NVVAYTCNFFCDGSLSGYLC"
  Cat: 1.0
- Substance: "CLLFNGNKLVCSHILMRKNG"
  Cat: 1.0
- Substance: "LTSFETFQNFNMAVMYAR"
  Cat: 0.0
- Substance: "HRMGPQVKHIHNIGESKQSE"
  Cat: 1.0
- Substance: "EIRLNYMGFGPKCT"
  Cat: 1.0
- Substance: "NGLSMSLSCRYTLWVIFFSF"
  Cat: 0.0
- Substance: "LGYRPWFWTTAFSSLADLAR"
  Cat: 0.0
- Substance: "QGSDAYHSMNMQLWVSRTLT"
  Cat: 0.0
- Substance: "NKEVNYTNIINCVGIRGCRL"
  Cat: 1.0
- Substance: "YCCYLMCYSRRILDGP"
  Cat: 0.0
- Substance: "PWCTGRLTGSNCKVYWITRS"
  Cat: 1.0
- Substance: "SANMKYRTLKQSLG"
  Cat: 0.0
- Substance: "RVTDLYFASGGQLMQRSVLL"
  Cat: 0.0
- Substance: "SYPKGGLPCGWIRTPPWRFH"
  Cat: 1.0
- Substance: "VSLCAQRYVIMMSIVRTKSL"
  Cat: 0.0
- Substance: "SSSWTTCY"
  Cat: 1.0
- Substance: "LGFRVNWIDHPRSNRSTAGL"
  Cat: 1.0
- Substance: "RCGLAQSSVSSSVKGPRVTW"
  Cat: 0.0
- Substance: "SLEDEEQLYLANSIREGLAV"
  Cat: 1.0
- Substance: "DISDRGTDIFVSTPGSSMLS"
  Cat: 1.0
- Substance: "ARFCRGGRIVSLMRVLTQTR"
  Cat: 0.0
- Substance: "IRRAENLFIRYSHR"
  Cat: 1.0
